system: SW872; assay: relative viability vs DMSO control (72 h) (fraction); higher = more viable cells; details: 0.1235 µM
Examples of compounds with documented relative viability follow.
// no unit, no text: just the number

Would you please look over these solved cases?
1) Cc1c(F)cc(C(=O)NC2CC2)cc1-c1ccc(C(=O)NCC(C)(C)C)cn1 ... 1.06
2) Cc1cccc(-c2[nH]c(CNc3ccccc3F)nc2-c2ccc3ncnn3c2)n1 ... 0.969
3) COc1cc(Nc2c(C#N)cnc3cc(OCCCN4CCN(C)CC4)c(OC)cc23)c(Cl)cc1Cl ... 1.08
4) CC[C@@H]1C(=O)N(C)c2cnc(Nc3ccc(C(=O)N[C@H]4CC[C@H](N5CCN(CC6CC6)CC5)CC4)cc3OC)nc2N1C(C)C ... 0.437
5) CN(C)C[C@@H]1CCn2cc(c3ccccc32)C2=C(C(=O)NC2=O)c2cn(c3ccccc23)CCO1 ... 1.01
6) COc1cc2c(Oc3ccc4[nH]c(C)cc4c3F)ccnc2cc1OCC1(N)CC1 ... 1.01
7) N#Cc1ccnc(N2C(=O)CC[C@H]2C(=O)N(c2cncc(F)c2)[C@H](C(=O)NC2CC(F)(F)C2)c2ccccc2Cl)c1 ... 1.03
8) CCN(CCCOc1ccc2c(Nc3cc(CC(=O)Nc4cccc(F)c4)[nH]n3)ncnc2c1)CCOP(=O)(O)O ... 0.897

The record that follows has no relative viability shown yet.
## Task Which relative viability value belongs to CN1CCN(CCOc2cc(OC3CCOCC3)c3c(Nc4c(Cl)ccc5c4OCO5)ncnc3c2)CC1 ?
## Result 0.917
